Molecular target: pooled human IgG
Assignment: determine reported Enzyme Activity Endpoint Assay (purified): scIgG for the given proteins.
Write the numeric value and append its unit.

Q) Let me know recorded Enzyme Activity Endpoint Assay (purified): scIgG for PRT-258 (protein) MVTSVWTKGVTPPTNFTYGEDVLHAPYVANQGWYDITKLFNGKDDLLCGAATAGNMLHWWFDQNKEQIENYLKKHPEKQKINFNGEQMFDVKEAIDTKDSQLDSKLFEYFLEKAFPYLSTKHLGVFPDHVIDMFINGYRLSLTNHGPTPVKRGSKDPRGGIFDAVFTRGDQSKLLTNRHDFKEKTLKEISDLIKQELTEGKALGISHTYANVRINHVINLWGADFDAEGNLEAIAVTDSDSNASIGMKKYFVGVNSSGKVAISAKEIEEDNIGAQVLGLFTLSTGQDIWNQTN , thanks.
A) 0 ng/µL

Q) Let me know recorded Enzyme Activity Endpoint Assay (purified): scIgG for PRT-665 (protein) MQITSVWTKGVTPPTPEQFRYNNEDVIHAPYLAHQGWYDITKAFDGKDNLLCGAATAGNMLHWWFDQNKTEIEAYLSKYPEKQKIIFNNQELFDLRAAINTKDSQTNSQLFNYFRDKAFPNLSARQLGVMPDLVLDMFINGYYLNVFKTQSTDVNRPYQDKDKRGGIFDAVFTRGDQTTLLTARHDLSNKGLNDISTIIKQELTEGRALALSHTYANVSISHVINLWGADFNAEGNLEAIYVTDSDSNASIGMKKYYVGINASGHVAISAKKIEGEVIGAQVLGLFTLSSGKEIWQKLSLEHHHHHH , thanks.
A) 109 ng/µL
